The measurements presented in this section are drawn from ChEMBL document CHEMBL1201862.

test system: A498; test: NCI tumour cell line growth inhibition, 48 h
Activity calls are given as the source filed them. Cut-off read from the data, not from the text of the source: active = GI50 up to about 1.1 µM and inactive = higher.
Possible outcomes: 1 for active, -1 for inactive

compound	classification
CCSC(=O)C1(C)OC2CCCCC2C1=O (stereo not given)	-1
CC(C)CCNC(=O)C(CC(C)C)NC(=O)[C@H]1O[C@@H]1C(=O)O (stereo not given in full)	-1
C[C@]12C(=O)C=CCC1=CC[C@@H]1[C@@H]2[C@H]2CC3(O)C(=O)O[C@@]4(C)[C@H]5C[C@@]6(C)[C@@H]7[C@@]2(O)[C@]1(OC[C@H]6C(=O)O5)O[C@]734 (stereo not given in full)	-1
COc1ccc2[nH]c(C(=O)N3CC(CCl)c4ccc(N)cc43)cc2c1 (stereo not given)	1
COc1ccc(Oc2cccc(/C=C3/C(=O)Nc4ccccc43)c2)cc1	-1

---

Measured GI50, listed per entry.
test system: UACC-62; assay: NCI tumour cell line growth inhibition, 48 h
Activity calls are given as the source filed them. Rule as the data show it: active = GI50 up to about 1.1 µM and inactive = higher.
measured_property: GI50

> print(dat)
                                   compound       value.reported
1  CC1(C)Oc2ccc3c(=O)c(-c4ccccc4)c(-c4ccccc4)oc3c2C1C(=O)O (stereo unspecified)  > 100 µM (inactive)
2  COC(=O)C1=C(C(=O)OC)C(N(C)C)C(C(=O)OC)=C(C(=O)OC)S1  > 100 µM (inactive)
3  CCNC(=O)OCC1C2=C(C(=O)C(C)=C(N)C2=O)N2CC3C(N3C)C12OC (stereo unspecified)   11.9 µM (inactive)
4      Cc1nc2c(c(N3CCN(C)CC3)n1)Cc1ccccc1-2   42.6 µM (inactive)
5                  Cc1c2ccccc2cc2cccc[n+]12   41.7 µM (inactive)
6  Cc1csc2nc(-c3ccc([N+](=O)[O-])cc3)c(/C=N/N=C(N)N)n12   1.71 µM (inactive)

---

Measured GI50, listed per entry.
system: SN12C; experiment: NCI tumour cell line growth inhibition, 48 h
Active and inactive are the calls of the source. Rule as the data show it: active = GI50 up to about 1.1 µM and inactive = higher.
measured_property: GI50

compound	value_reported
COc1ccc2c(c1)OCC1Cc3ccccc3OC21 (stereo unspecified)	> 100 µM (inactive)
COc1cc([C@@H]2c3cc4c(cc3[C@@H](OC(=O)c3ccc(N)cc3)C3COC(=O)[C@@H]32)OCO4)cc(OC)c1O (stereo partly specified)	4.21 µM (inactive)
NNC(=O)Nc1nc2ccc(NN)cc2[nH]1	42.2 µM (inactive)
CN(C)CCCCN1CCc2c(n(C)c3ccccc23)C1=O	42 µM (inactive)
CCOC(=O)/C(=C/c1cccc(Cl)c1)N(CC)CC	45.9 µM (inactive)
O=C(CCC(=O)Nc1ccccc1C(F)(F)F)N/N=C1\C(=N\NC(=O)CCC(=O)Nc2ccccc2C(F)(F)F)C(c2ccc3c(c2)OCO3)Oc2ccccc21 (stereo unspecified)	6.46 µM (inactive)
COc1cccc(C2CC23C(=O)NC(=O)NC3=O)c1 (stereo unspecified)	> 100 µM (inactive)
O=Cc1c(C(=O)O)[nH]c(=O)[nH]c1=O	> 100 µM (inactive)
CSC(SC)(C(=O)O)c1cc(-c2c(Cl)cccc2Cl)no1	62.1 µM (inactive)
COc1ccc(C(=O)C(Br)C(Br)C(=O)O)cc1 (stereo unspecified)	47.2 µM (inactive)
Nc1ncnc2c1ncn2[C@@H]1O[C@H](COP(=O)(O)O)[C@@H](O)[C@@H]1O	> 50 µM (inactive)
